Test system: Mycolicibacterium smegmatis
METHOD: Antimycobacterial activity against log-phase culture of Mycobacterium smegmatis ATCC 14468 by agar dilution method
Type: functional
MEASURE: MIC (µM)
The reply should be a number in µM, with the unit left off.

Given the entry "O=[N+]([O-])c1ccc(/C=N/NC(=S)Nc2ccc(Cl)cc2)o1" , report its measured MIC.
19.1

Now this one: NNC(=O)c1ccncc1 [ISONIAZID]
45.6

Now this one: CO[C@H]1/C=C/O[C@@]2(C)Oc3c(C)c(O)c4c(O)c(c(/C=N/N5CCN(C)CC5)c(O)c4c3C2=O)NC(=O)/C(C)=C\C=C\[C@H](C)[C@H](O)[C@@H](C)[C@@H](O)[C@@H](C)[C@H](OC(C)=O)[C@@H]1C [RIFAMPIN]
1.89

Now this one: "NS(=O)(=O)c1ccc(NC(=S)N/N=C/c2ccc([N+](=O)[O-])o2)cc1"
8.4

Now this one: "O=[N+]([O-])c1ccc(/C=N/NC(=S)Nc2ncc(Br)cc2Br)o1"
6.9

Now this one: "O=[N+]([O-])c1ccc(/C=N/NC(=S)Nc2ccc(Cl)cn2)o1"
2.4

Now this one: "Cc1cc(C)nc(NC(=S)N/N=C/c2ccc([N+](=O)[O-])o2)c1"
4.8

* * *

For each of the molecules below, state its log10 MIC.
System: Mycobacterium kansasii
METHOD: Antimycobacterial activity against Mycobacterium kansasii MTCC 3058 by agar dilution method
Format: functional
Annotation: log10 of MIC, µM basis.

Given the entry NNC(=O)c1ccncc1 [ISONIAZID] , report its measured log10 MIC.
2.26

Now this one: "Cc1ccnc(NC(=S)N/N=C/c2ccc([N+](=O)[O-])o2)c1"
0.71

Now this one: "CCc1cccc(CC)c1NC(=S)N/N=C/c1ccc([N+](=O)[O-])o1"
1.56

Now this one: O=C(O)c1cn(C2CC2)c2cc(N3CCNCC3)c(F)cc2c1=O [CIPROFLOXACIN]
0.98

Now this one: "Cc1cccc(C)c1NC(=S)N/N=C/c1ccc([N+](=O)[O-])o1"
1.59

Now this one: "Cc1ccc(NC(=S)N/N=C/c2ccc([N+](=O)[O-])o2)cc1"
1.31

Now this one: "NS(=O)(=O)c1ccc(NC(=S)N/N=C/c2ccc([N+](=O)[O-])o2)cc1"
1.53

Now this one: "O=[N+]([O-])c1ccc(/C=N/NC(=S)Nc2ccc(Cl)cn2)o1"
0.68

Now this one: "O=[N+]([O-])c1ccc(/C=N/NC(=S)Nc2ncc(Br)cc2Br)o1"
0.23

Now this one: "O=[N+]([O-])c1ccc(/C=N/NC(=S)Nc2ccccc2Br)o1"
0.92

Now this one: "Cc1ccc(NC(=S)N/N=C/c2ccc([N+](=O)[O-])o2)c(C)c1"
0.99

Now this one: CO[C@H]1/C=C/O[C@@]2(C)Oc3c(C)c(O)c4c(O)c(c(/C=N/N5CCN(C)CC5)c(O)c4c3C2=O)NC(=O)/C(C)=C\C=C\[C@H](C)[C@H](O)[C@@H](C)[C@@H](O)[C@@H](C)[C@H](OC(C)=O)[C@@H]1C [RIFAMPIN]
0.88

Now this one: "O=[N+]([O-])c1ccc(/C=N/NC(=S)Nc2ccccc2)o1"
0.72

Now this one: "COc1ccc(NC(=S)N/N=C/c2ccc([N+](=O)[O-])o2)c(OC)c1"
1.55

Now this one: "O=[N+]([O-])c1ccc(/C=N/NC(=S)Nc2ccccn2)o1"
1.08

Now this one: "Cc1cccnc1NC(=S)N/N=C/c1ccc([N+](=O)[O-])o1"
0.71

Now this one: "COc1ccc(NC(=S)N/N=C/c2ccc([N+](=O)[O-])o2)cc1"
1.59

Now this one: "O=[N+]([O-])c1ccc(/C=N/NC(=S)Nc2ccc(Cl)cc2)o1"
1.58

Now this one: "Cc1ccc(C)c(NC(=S)N/N=C/c2ccc([N+](=O)[O-])o2)c1"
1.89

Now this one: "Cc1cc(C)nc(NC(=S)N/N=C/c2ccc([N+](=O)[O-])o2)c1"
1.59

* * *

For each of the compounds below, state its MIC.
Test system: Mycolicibacterium smegmatis
METHOD: Antimycobacterial activity against Mycobacterium smegmatis ATCC 14468 by agar dilution method
Format: functional
The reply should be a number in µM, with the unit left off.

Given the entry "COc1ccc(NC(=S)N/N=C/c2ccc([N+](=O)[O-])o2)cc1" , report its measured MIC.
39

Now this one: "Cc1ccc(C)c(NC(=S)N/N=C/c2ccc([N+](=O)[O-])o2)c1"
157

Now this one: "CCc1cccc(CC)c1NC(=S)N/N=C/c1ccc([N+](=O)[O-])o1"
36

Now this one: "COc1ccc(NC(=S)N/N=C/c2ccc([N+](=O)[O-])o2)c(OC)c1"
35.6

Now this one: "Cc1ccnc(NC(=S)N/N=C/c2ccc([N+](=O)[O-])o2)c1"
20.5

Now this one: "O=[N+]([O-])c1ccc(/C=N/NC(=S)Nc2ccc(Cl)cc2)o1"
19.1

Now this one: "O=[N+]([O-])c1ccc(/C=N/NC(=S)Nc2ccc(Cl)cn2)o1"
2.4

Now this one: "O=[N+]([O-])c1ccc(/C=N/NC(=S)Nc2ncc(Br)cc2Br)o1"
6.9

Now this one: "Cc1ccc(NC(=S)N/N=C/c2ccc([N+](=O)[O-])o2)c(C)c1"
314

Now this one: "NS(=O)(=O)c1ccc(NC(=S)N/N=C/c2ccc([N+](=O)[O-])o2)cc1"
8.4

* * *

For each of the molecules below, state its MIC.
System: Mycolicibacterium smegmatis
METHOD: Antimycobacterial activity against Mycobacterium smegmatis ATCC 14468 by agar dilution method
Assay type: functional
The reply should be a number in µM, with the unit left off.

Given the entry "Cc1cccc(C)c1NC(=S)N/N=C/c1ccc([N+](=O)[O-])o1" , report its measured MIC.
39.2

Now this one: "Cc1ccc(NC(=S)N/N=C/c2ccc([N+](=O)[O-])o2)cc1"
41

Now this one: "Cc1cccnc1NC(=S)N/N=C/c1ccc([N+](=O)[O-])o1"
20.5

Now this one: "O=[N+]([O-])c1ccc(/C=N/NC(=S)Nc2ccccc2Br)o1"
33.8

Now this one: "Cc1cc(C)nc(NC(=S)N/N=C/c2ccc([N+](=O)[O-])o2)c1"
4.8

Now this one: "O=[N+]([O-])c1ccc(/C=N/NC(=S)Nc2ccccc2)o1"
172

* * *

Test system: Mycolicibacterium smegmatis
METHOD: Antimycobacterial activity against Mycobacterium smegmatis ATCC 14468 by agar dilution method
Format: functional
For each of the molecules below, state its MIC.

Given the entry "NNC(=O)c1ccncc1" , report its measured MIC.
45.6 µM

Now this one: "O=[N+]([O-])c1ccc(/C=N/NC(=S)Nc2ccccn2)o1"
48.4 µM

Now this one: "CO[C@H]1/C=C/O[C@@]2(C)Oc3c(C)c(O)c4c(O)c(c(/C=N/N5CCN(C)CC5)c(O)c4c3C2=O)NC(=O)/C(C)=C\C=C\[C@H](C)[C@H](O)[C@@H](C)[C@@H](O)[C@@H](C)[C@H](OC(C)=O)[C@@H]1C"
1.89 µM

Now this one: "O=C(O)c1cn(C2CC2)c2cc(N3CCNCC3)c(F)cc2c1=O"
2.35 µM
